# log10 OH rate constant (cm³/molecule/s) per record follows
conditions: 27.0 °C
# respond with the number and nothing more

Field request: log10 OH rate constant (cm³/molecule/s) | item: O=Cc1ccoc1
-10.3

What about CCc1ccco1 ?
-9.97

What about Cc1ccc(O)c(O)c1 ?
-9.81

What about CC(=O)N(C)C ?
-10.9

What about O=C1C=CC(=O)C=C1 ?
-11.3

What about Cc1ccc(C)o1 ?
-9.88

What about CCC(=O)NC ?
-11.1

What about Cc1ccc(C=O)o1 ?
-10.3

What about CNC(C)=O ?
-11.3

What about CC1=CC(=O)C=CC1=O ?
-10.6
